system: Erysiphe graminis f. sp. tritici; experiment: Test A: wheat powdery mildew, preventive spray on wheat seedlings, visual disease rating; details: 200 ppm; 100 = 100 % disease control, 0 = no disease control relative to controls
Label key: true means Test A disease control rating under 90%; false means Test A disease control rating of 90% or more.

Answered examples (5):
compound="CN1OC(C)(c2cccnc2)CC1c1ccc(-c2ccn(CC(F)(F)F)n2)cc1 (mixture of isomers)" label_class=true
compound="CN1OC(C)(c2cccnc2)CC1c1ccc(F)c(F)c1 (stereo not drawn) [Compound 81]" label_class=true
compound="CN1OC(C)(c2cccnc2)CC1c1ccc(Br)cc1F (stereo not drawn)" label_class=true
compound="CN1OC(c2cccnc2)(C(F)(F)F)CC1c1ccc(-c2ccccc2)cc1 (racemic) [Compound 23]" label_class=false
compound="CN1OC(C)(c2cccnc2)CC1c1ccc(C(C)(C)C)cc1 (racemic) [Compound 8]" label_class=false

Incoming: Lab note: confirm whether the reported Test A disease control rating for this compound is below 90%, equality not counting. compound: CN1OC(C)(c2cccnc2)CC1c1ccc(Oc2ccc(F)cc2)cc1 (racemic) [Compound 19]
Outgoing: false

Incoming: Lab note: confirm whether the reported Test A disease control rating for this compound is below 90%, equality not counting. compound: CN1OC(C)(c2cccnc2)CC1c1ccc(Br)cc1 (racemic) [Compound 3]
Outgoing: false

Incoming: Lab note: confirm whether the reported Test A disease control rating for this compound is below 90%, equality not counting. compound: CN1OC(C)(c2cccnc2)CC1c1cccc(F)c1 (stereo not drawn)
Outgoing: true

Incoming: Lab note: confirm whether the reported Test A disease control rating for this compound is below 90%, equality not counting. compound: CN1OC(C)(c2cccnc2)CC1c1cccc(Br)c1 (stereo not drawn) [Compound 67]
Outgoing: true
